Test system: P. aeruginosa ATCC 27853
Experiment: Neutropenic mouse bloodstream infection model
Type: in vivo
Settings: single IV dose 4 mg/kg, 4 h, treated minus control, mean of replicates; 4 mg/kg
Residues, ends and D or L forms follow the SMILES beside them.
metric: Δlog10 CFU/mL blood (mean) (log10 CFU/mL blood)
Write down the numeric answer in log10 CFU/mL blood and omit the unit.

Challenge: Entry under review: CC[C@@H]1NC(=O)[C@@H](CC(C)C)NC(=O)[C@H](CCN)NC(=O)[C@@H](NC(=O)[C@H](CN)NC(=O)[C@@H](NC(=O)[C@H](CCN)NC(=O)c2cc(Cl)cc(Cl)c2)[C@@H](C)O)CCNC(=O)[C@H]([C@@H](C)O)NC(=O)[C@H](CCN)NC(=O)[C@H](CCN)NC1=O [Lipopeptide F381] (HELM PEPTIDE1{[O=C(c1cc(Cl)cc(Cl)c1)[*:2]].[Dab].T.[NC[C@H](N[*:1])C(=O)[*:2]].[Dab].[Dab].[dL].[Abu].[Dab].[Dab].T}$PEPTIDE1,PEPTIDE1,5:R3-11:R2$$$V2.0) . Reported Δlog10 CFU/mL blood (mean)?
Response given: −3.45

Challenge: Follow-up item: CCCCCCCC(=O)N[C@@H](CCN)C(=O)N[C@H](C(=O)N[C@@H](CCN)C(=O)N[C@H]1CCNC(=O)[C@H]([C@@H](C)O)NC(=O)[C@H](CCN)NC(=O)[C@H](CCN)NC(=O)[C@H](CC)NC(=O)[C@@H](CC(C)C)NC(=O)[C@H](CCN)NC1=O)[C@@H](C)O [Lipopeptide F319] (HELM PEPTIDE1{[CCCCCCCC(=O)[*:2]].[Dab].T.[Dab].[Dab].[Dab].[dL].[Abu].[Dab].[Dab].T}$PEPTIDE1,PEPTIDE1,5:R3-11:R2$$$V2.0)
Response given: −3.44

Challenge: Follow-up item: CCCCCCCC(=O)N[C@@H](CCN)C(=O)N[C@H](C(=O)N[C@@H](CN)C(=O)N[C@H]1CCNC(=O)[C@H]([C@@H](C)O)NC(=O)[C@H](CCN)NC(=O)[C@H](CCN)NC(=O)[C@H]([C@@H](C)O)NC(=O)[C@@H](CC(C)C)NC(=O)[C@H](CCN)NC1=O)[C@@H](C)O [Lipopeptide F251] (HELM PEPTIDE1{[CCCCCCCC(=O)[*:2]].[Dab].T.[NC[C@H](N[*:1])C(=O)[*:2]].[Dab].[Dab].[dL].T.[Dab].[Dab].T}$PEPTIDE1,PEPTIDE1,5:R3-11:R2$$$V2.0)
Response given: −1.57

Challenge: Follow-up item: CC[C@@H]1NC(=O)[C@@H](CC(C)C)NC(=O)[C@H](CCN)NC(=O)[C@@H](NC(=O)[C@H](CN)NC(=O)[C@@H](NC(=O)[C@H](CCN)NC(=O)c2ccc(C)cc2)[C@@H](C)O)CCNC(=O)[C@H]([C@@H](C)O)NC(=O)[C@H](CCN)NC(=O)[C@H](CCN)NC1=O [Lipopeptide F383] (HELM PEPTIDE1{[Cc1ccc(C(=O)[*:2])cc1].[Dab].T.[NC[C@H](N[*:1])C(=O)[*:2]].[Dab].[Dab].[dL].[Abu].[Dab].[Dab].T}$PEPTIDE1,PEPTIDE1,5:R3-11:R2$$$V2.0)
Response given: −3.02

###

Conditions: rat, in vivo, iv, 1 mg/kg
Residues, ends and D or L forms follow the SMILES beside them.
metric: clearance
Report as: number unit

Challenge: Entry under review: CC[C@@H]1NC(=O)[C@@H](CC(C)C)NC(=O)[C@H](CCN)NC(=O)[C@@H](NC(=O)[C@H](CN)NC(=O)[C@@H](NC(=O)[C@H](CCN)NC(=O)c2ccc(Cl)cc2Cl)[C@@H](C)O)CCNC(=O)[C@H]([C@@H](C)O)NC(=O)[C@H](CCN)NC(=O)[C@H](CCN)NC1=O [Lipopeptide F365] (HELM PEPTIDE1{[O=C(c1ccc(Cl)cc1Cl)[*:2]].[Dab].T.[NC[C@H](N[*:1])C(=O)[*:2]].[Dab].[Dab].[dL].[Abu].[Dab].[Dab].T}$PEPTIDE1,PEPTIDE1,5:R3-11:R2$$$V2.0) . Reported clearance?
Response given: 7.67 mL/min/kg

###

The entries below come with measured MIC K. pneumoniae FADDI-KP032 values attached.
Test system: K. pneumoniae FADDI-KP032
Type: cell-based, Klebsiella pneumoniae
Settings: FADDI-KP032
Residues, ends and D or L forms follow the SMILES beside them.
Write down the numeric answer in µg/mL and omit the unit.

* CC[C@@H]1NC(=O)[C@@H](CC(C)C)NC(=O)[C@H](CCN)NC(=O)[C@@H](NC(=O)[C@H](CN)NC(=O)[C@@H](NC(=O)[C@H](CCN)NC(=O)c2ccc(C)cc2)[C@@H](C)O)CCNC(=O)[C@H]([C@@H](C)O)NC(=O)[C@H](CCN)NC(=O)[C@H](CCN)NC1=O [Lipopeptide F383] (HELM PEPTIDE1{[Cc1ccc(C(=O)[*:2])cc1].[Dab].T.[NC[C@H](N[*:1])C(=O)[*:2]].[Dab].[Dab].[dL].[Abu].[Dab].[Dab].T}$PEPTIDE1,PEPTIDE1,5:R3-11:R2$$$V2.0) | 1

Okay, now this compound:
Challenge: I'm curious: which MIC K. pneumoniae FADDI-KP032 was measured for CCCCCCCC(=O)N[C@@H](CCN)C(=O)N[C@H](C(=O)N[C@@H](CCN)C(=O)N[C@H]1CCNC(=O)[C@H]([C@@H](C)O)NC(=O)[C@H](CCN)NC(=O)[C@H](CCN)NC(=O)[C@H]([C@@H](C)O)NC(=O)[C@@H](C(C)C)NC(=O)[C@H](CCN)NC1=O)[C@@H](C)O [Lipopeptide F229] (HELM PEPTIDE1{[CCCCCCCC(=O)[*:2]].[Dab].T.[Dab].[Dab].[Dab].[dV].T.[Dab].[Dab].T}$PEPTIDE1,PEPTIDE1,5:R3-11:R2$$$V2.0) tested on K. pneumoniae FADDI-KP032?
Response given: 1

###

System: K. pneumoniae FADDI-KP032
Assay type: cell-based, Klebsiella pneumoniae
Settings: FADDI-KP032
Residues, ends and D or L forms follow the SMILES beside them.
metric: MIC K. pneumoniae FADDI-KP032 (µg/mL)
Write down the numeric answer in µg/mL and omit the unit.

Challenge: Entry under review: CCCCCCCC(=O)N[C@@H](CCN)C(=O)N[C@H](C(=O)N[C@@H](CCN)C(=O)N[C@H]1CCNC(=O)[C@H]([C@@H](C)O)NC(=O)[C@H](CCN)NC(=O)[C@H](CCN)NC(=O)[C@H](CC)NC(=O)[C@@H](CC(C)C)NC(=O)[C@H](CCN)NC1=O)[C@@H](C)O [Lipopeptide F319] (HELM PEPTIDE1{[CCCCCCCC(=O)[*:2]].[Dab].T.[Dab].[Dab].[Dab].[dL].[Abu].[Dab].[Dab].T}$PEPTIDE1,PEPTIDE1,5:R3-11:R2$$$V2.0) . Reported MIC K. pneumoniae FADDI-KP032?
Response given: 0.25

###

Assay: 14-day repeat-dose GLP toxicology study
Settings: cynomolgus monkey, in vivo, 50 mg/kg, Plasma AUC0-24 Day 1
Residues, ends and D or L forms follow the SMILES beside them.
metric: AUC(0-t) (µg·h/mL)
Write down the numeric answer in µg·h/mL and omit the unit.

Challenge: Entry under review: CC[C@@H]1NC(=O)[C@@H](CC(C)C)NC(=O)[C@H](CCN)NC(=O)[C@@H](NC(=O)[C@H](CN)NC(=O)[C@@H](NC(=O)[C@H](CCN)NC(=O)c2ccc(Cl)cc2Cl)[C@@H](C)O)CCNC(=O)[C@H]([C@@H](C)O)NC(=O)[C@H](CCN)NC(=O)[C@H](CCN)NC1=O [Lipopeptide F365] (HELM PEPTIDE1{[O=C(c1ccc(Cl)cc1Cl)[*:2]].[Dab].T.[NC[C@H](N[*:1])C(=O)[*:2]].[Dab].[Dab].[dL].[Abu].[Dab].[Dab].T}$PEPTIDE1,PEPTIDE1,5:R3-11:R2$$$V2.0) . Reported AUC(0-t)?
Response given: 246

###

The entries below come with measured MIC, No Survanta values attached.
System: P. aeruginosa ATCC 27853
Format: cell-based, Pseudomonas aeruginosa
Conditions: ATCC 27853
Residues, ends and D or L forms follow the SMILES beside them.

• CCCCCC(=O)N[C@@H](CCN)C(=O)N[C@H](C(=O)N[C@@H](CN)C(=O)N[C@H]1CCNC(=O)[C@H]([C@@H](C)O)NC(=O)[C@H](CCN)NC(=O)[C@H](CCN)NC(=O)[C@H](CC)NC(=O)[C@@H](CC(C)C)NC(=O)[C@H](CCN)NC1=O)[C@@H](C)O [Lipopeptide F342] (HELM PEPTIDE1{[CCCCCC(=O)[*:2]].[Dab].T.[NC[C@H](N[*:1])C(=O)[*:2]].[Dab].[Dab].[dL].[Abu].[Dab].[Dab].T}$PEPTIDE1,PEPTIDE1,5:R3-11:R2$$$V2.0) = 1 µg/mL

Okay, now this molecule:
Challenge: Entry under review: CC[C@@H]1NC(=O)[C@@H](CC(C)C)NC(=O)[C@H](CCN)NC(=O)[C@@H](NC(=O)[C@H](CN)NC(=O)[C@@H](NC(=O)[C@H](CCN)NC(=O)c2ccc(Cl)cc2Cl)[C@@H](C)O)CCNC(=O)[C@H]([C@@H](C)O)NC(=O)[C@H](CCN)NC(=O)[C@H](CCN)NC1=O [Lipopeptide F365] (HELM PEPTIDE1{[O=C(c1ccc(Cl)cc1Cl)[*:2]].[Dab].T.[NC[C@H](N[*:1])C(=O)[*:2]].[Dab].[Dab].[dL].[Abu].[Dab].[Dab].T}$PEPTIDE1,PEPTIDE1,5:R3-11:R2$$$V2.0) . Reported MIC, No Survanta?
Response given: 0.5 µg/mL
